Every entry's value here was drawn from PubChem BioAssay.

Assay: growth inhibition of DIPG glioma cells, dose response, cell-based, SU-DIPG-IV, MIPE4.0, CellTiter-Glo, qHTS (AID 1347063);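 note: compound exposure lasted 48 hours before the viability readout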
Settings: SU-DIPG-IV viability, CellTiter-Glo ATP luminescence
Inconclusive results are not listed. The source made the active and inactive calls. No cut-off is given here; in the data, nearly all actives have AC50 up to about 30 µM.
Quantity: AC50

1. COc1ccc2cccc(CCNC(C)=O)c2c1 = inactive
2. C[C@@H]1[C@H](O)[C@@H](C)/C=C/C=C/C=C/C=C/C=C/C=C/C=C/[C@H](O[C@@H]2O[C@H](C)[C@@H](O)[C@H](N)[C@@H]2O)C[C@@H]2O[C@](O)(C[C@@H](O)C[C@@H](O)[C@H](O)CC[C@@H](O)C[C@@H](O)CC(=O)O[C@H]1C)C[C@H](O)[C@H]2C(=O)O = 6.62 µM (active)
3. CN(c1nccc(=O)[nH]1)C1CCN(c2nc3ccccc3n2Cc2ccc(F)cc2)CC1 = inactive
4. NC(=O)c1cccc(N)c1 = inactive

Problem: Fill blank: measured AC50 of the compound COc1ccc(-c2coc3cc(O)ccc3c2=O)cc1 is ____.
Result: inactive

Problem: I have this compound here, C=C(C)[C@@H]1CC[C@]2(C(=O)O)CC[C@]3(C)[C@H](CC[C@@H]4[C@@]5(C)CC[C@H](O)C(C)(C)[C@@H]5CC[C@]43C)[C@@H]12 , and I need its recorded AC50.
Result: inactive

Problem: Any idea what AC50 was measured for CCN(CC)CCNC(=O)c1c(C)[nH]c(/C=C2\C(=O)Nc3ccc(F)cc32)c1C ?
Result: 9.59 µM (active)

Problem: Quick one: AC50 of COc1nc(N)nc2c1ncn2[C@@H]1O[C@H](CO)[C@@H](O)[C@@H]1O ?
Result: inactive

Problem: I'd like to know its AC50. The compound in question is CCc1ccc(OCc2ccccc2C(=O)Nc2ccc3nc(C)cc(N)c3c2)cc1
Result: 3.32 µM (active)

Problem: Which measured AC50 value corresponds to CC[C@@]1(O)C[C@H](O[C@H]2C[C@H](N(C)C)[C@H](O[C@H]3C[C@H](O)[C@H](O[C@H]4CCC(=O)[C@H](C)O4)[C@H](C)O3)[C@H](C)O2)c2c(cc3c(c2O)C(=O)c2c(O)cccc2C3=O)[C@H]1C(=O)OC ?
Result: 0.469 µM (active)

====

Experiment: stimulators of nuclear beta-catenin in C2C12, primary screen, imaging, WNT3A-conditioned medium, mouse C2C12, NPC library (AID 1117326)
Conditions: at 10 µM, stronger effect = higher value
Listed next: entries and their corresponding nuclear beta-catenin stimulation.
Only the number, expressed in %, is required.

Worked set:
1. O=c1[nH]c2ccccc2n1CCCN1CCN(C(c2ccccc2)c2ccccc2)CC1 = 2.7
2. CCNC(=O)N1CCN(CCCC(c2ccc(F)cc2)c2ccc(F)cc2)CC1 = 0.3
3. CCC(C(=O)OCCOCCN(CC)CC)c1ccccc1 (stereo unspecified) = 1.3
4. C/C(=N\O)[C@@H](C)NCC(C)(C)CN[C@H](C)/C(C)=N/O = 1.5

Then there is this molecule:
Problem: Requested field: nuclear beta-catenin stimulation. Item: CCOC(=O)Nc1ccc2c(c1)N(C(=O)CCN1CCOCC1)c1ccccc1S2
Result: -0.6

====

Experiment: differential killing of epithelial or mesenchymal cells, primary screen, imaging, PC-3E GFP, TEM4-18 mCherry, co-culture (AID 1345086);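 note: cells exposed to compound for 72 h before imaging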
Settings: imaging cell counts, measured here: mesenchymal TEM4-18 mCherry cell survival, at 1 µM
Quantity: normalised cell number
I'd appreciate a reply containing only the number, no unit.

Below, 3 molecules whose answers are already recorded.
1. CC(=O)O[C@H]1C[C@@H](OC(C)=O)C(C)(C)C2CC(=O)[C@]3(C)C(CC[C@@]4(C)[C@H](C(=O)O)OC(=O)C5OC543)[C@]21C (stereo partly drawn) = 0.99
2. CC(=O)Nc1ncc([N+](=O)[O-])s1 = 1.04
3. CCOC(=O)c1c(C)cc(O)c(C=O)c1O = 0.94

Problem: Using the record for Cc1cccc(C)c1NC(=O)C1CCCCN1C (stereo not drawn) , report its normalised cell number.
Result: 1.44

Problem: Would you mind telling me what normalised cell number value was observed for C1CCc2nnnn2CC1 ?
Result: 1.38

Problem: Name the reported normalised cell number value associated with the molecule C[C@]12CCC3c4ccc(OS(=O)(=O)O)cc4CCC3C1CC[C@H]2O (stereo partly drawn)
Result: 1.13

Problem: Fill in the blank: the reported normalised cell number of NC(=O)c1ccc[n+]([C@@H]2O[C@H](COP(=O)([O-])OP(=O)(O)OC[C@H]3O[C@@H](n4cnc5c(N)ncnc54)[C@H](O)[C@@H]3O)[C@@H](O)[C@H]2O)c1 is ____.
Result: 1.14

Problem: # query: normalised cell number of entry C#CCCCCCCCCCCCC(O)CC(O)CO (stereo not drawn)
Result: 0.82

====

Target: NAD(+) hydrolase SARM1 (Homo sapiens)
Assay: SARM1 TIR NADase inhibitors, cell lysate, NAD-Glo luminescence (AID 1508614);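 note: higher remaining NAD means stronger inhibition of SARM1 NADase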
Details: SAM-TIR HEK293T lysate NADase, at 1 µM
Activity calls are given as the source filed them.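 The calls were made as follows: active = compound whose remaining NAD level is above about 45 nM (limit read from the data); inactive = the rest.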
Output constraint: value belongs to active, inactive

Known results for compounds:
1) CSCC[C@H](NC(=O)[C@H](Cc1c[nH]c2ccccc12)NC(=O)CCNC(=O)OC(C)(C)C)C(=O)N[C@@H](CC(=O)O)C(=O)N[C@@H](Cc1ccccc1)C(N)=O = inactive
2) CN1C(CCl)Nc2cc(Cl)c(S(N)(=O)=O)cc2S1(=O)=O (centres undefined) = inactive
3) CC[N+](CC)(CC(=O)Nc1c(C)cccc1C)Cc1ccccc1 = inactive
4) O=c1cc[nH]c(=O)[nH]1 = inactive
5) C=C1c2c(Cl)ccc(O)c2C(O)=C2C(=O)[C@]3(O)C(O)=C(C(N)=O)C(=O)[C@@H](N(C)C)[C@@H]3[C@@H](O)[C@H]12 = inactive
6) NC(N)=O = inactive
7) C[C@H](CCC(=O)O)[C@H]1CC[C@H]2[C@@H]3[C@@H](O)C[C@@H]4C[C@H](O)CC[C@]4(C)[C@H]3CC[C@]12C = inactive
8) CN1CCc2c(c3ccccc3n2Cc2ccccc2)C1 = inactive

Problem: Could you kindly confirm the outcome this assay logged for CCC(=O)NCC[C@@H]1CCc2ccc3c(c21)CCO3 ?
Result: inactive

Problem: # lookup: test call for O=C(O)c1cc(=O)[nH]c(=O)[nH]1
Result: inactive

Problem: Hi, do you know how CC(=O)OCC(=O)[C@@]1(O)CC[C@H]2[C@@H]3CCC4=CC(=O)CC[C@]4(C)[C@H]3[C@@H](O)C[C@@]21C came out in this test?
Result: inactive

Problem: Could you please tell me the result logged for Cn1c(=O)c2c(ncn2CC2OCCO2)n(C)c1=O in this assay?
Result: inactive

Problem: What did this assay record as the result for C[C@@H]1O[C@@H](OC[C@H]2O[C@@H](Oc3c(-c4ccc(OCCO)c(OCCO)c4)oc4cc(OCCO)cc(O)c4c3=O)[C@H](O)[C@@H](O)[C@@H]2O)[C@H](O)[C@H](O)[C@H]1O ?
Result: inactive

====

Assay: glucagon-like peptide 1 release enhancers, primary assay, NCI-H716 cell line, NPC library (AID 1117341)
Settings: NCI-H716 cells, at 10 µM, stronger effect = higher value
Below: a set of entries, each annotated with reported GLP1 secretion stimulation.
Form entry: value (%) — number only.

Field: example entries. Status: answers known.
1) CCCCCCCCCCCCCCCCNc1ccc(C(=O)O)cc1 = -2.9
2) NS(=O)(=O)c1cc(Cl)c(Cl)c(S(N)(=O)=O)c1 = 0.3

Problem: Suppose we examine the compound COC(=O)CCCCC(CCSS/C(CCO)=C(\C)N(C=O)Cc1cnc(C)nc1N)SC(C)=O (centres undefined) ; what GLP1 secretion stimulation value has been reported?
Result: 0.4

====

Test: stimulators of insulin release from INS-1E, primary screen, cell-based, 5 mM glucose, NPC library (AID 1117329)
Conditions: rat INS-1E insulin secretion, at 10 µM, stronger effect = higher value
Quantity: insulin secretion stimulation (%)
Provide the reading as a plain figure in %.

1) Nc1ccn(C[C@@H](CO)OCP(=O)(O)O)c(=O)n1 = 1.05

Problem: Query: insulin secretion stimulation; subject: CN1[C@@H]2CC(OC(=O)[C@H](CO)c3ccccc3)C[C@H]1[C@@H]1O[C@@H]12 (some centres not stated)
Result: 0.9

Problem: Bench note: what insulin secretion stimulation did O=C(CS(=O)Cc1ccco1)NC/C=C\COc1cc(CN2CCCCC2)ccn1 (configuration not stated) show?
Result: 4

Problem: Give the measured insulin secretion stimulation of O=C(Oc1ccccc1C(=O)O)c1ccccc1O .
Result: -0.5

Problem: Given C[C@]12CC[C@H]3[C@@H](CCC4=CC(=O)CC[C@@]43C)[C@@H]1CC[C@@H]2C(=O)CO , state its recorded insulin secretion stimulation.
Result: 0.8

Problem: Need insulin secretion stimulation of Cc1ncc([N+](=O)[O-])n1C , thanks.
Result: 4.1

Problem: Recorded insulin secretion stimulation of [O-][n+]1cccc(CO)c1 , please.
Result: 2.1
